# target or system: EutQ (residues 1 to 229) (S. Typhimurium LT2, UniProt Q9ZFV5 1-229)
# Sequence (Q9ZFV5 whole entry, the tested form may be a part): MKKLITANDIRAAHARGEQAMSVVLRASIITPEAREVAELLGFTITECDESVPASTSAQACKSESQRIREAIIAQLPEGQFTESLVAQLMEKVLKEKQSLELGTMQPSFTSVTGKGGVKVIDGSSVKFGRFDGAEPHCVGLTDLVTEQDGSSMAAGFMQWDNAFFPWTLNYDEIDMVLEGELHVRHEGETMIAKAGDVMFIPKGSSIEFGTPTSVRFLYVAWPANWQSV
# test: ITC
measurement kind: Kd (µM)
Give just the number in µM; leave the unit off.

Kd for MNQQDIEQVVKAVLLKMKDS [EutE^1–20 encapsulation peptide] is 14.1
